MFI reference
molecular target: T1, human CXCR4 (chemokine (C-X-C motif) receptor 4) (human, UniProt P61073 1-352); assay: flow cytometry on HPB-ALL cells, Fab at 0.25 µg/mL
T1 construct: Endogenous on human tumour cell lines (Ramos, HPB-ALL, Raji, Jurkat, MM1.S, RPMI-8226, MOLP-8, MOLT-4) or transfected into CHO-K1 cells (DiscoveRx); also called CXCR4 receptor
T1 sequence (P61073 whole entry): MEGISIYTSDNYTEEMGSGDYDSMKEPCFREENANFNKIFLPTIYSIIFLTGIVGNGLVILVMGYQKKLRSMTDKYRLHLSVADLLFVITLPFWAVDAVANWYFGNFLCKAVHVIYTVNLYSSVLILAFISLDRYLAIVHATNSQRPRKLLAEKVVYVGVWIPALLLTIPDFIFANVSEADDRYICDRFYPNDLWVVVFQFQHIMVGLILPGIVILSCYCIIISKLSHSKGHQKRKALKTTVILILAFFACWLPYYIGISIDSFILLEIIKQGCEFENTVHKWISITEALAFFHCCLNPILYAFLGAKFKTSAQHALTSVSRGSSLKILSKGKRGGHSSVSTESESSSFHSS

{"binder": "h3G10.2.37 VH / h3G10.A58A VL Fab (Fab, V domains shown, Tested as Fab) VH: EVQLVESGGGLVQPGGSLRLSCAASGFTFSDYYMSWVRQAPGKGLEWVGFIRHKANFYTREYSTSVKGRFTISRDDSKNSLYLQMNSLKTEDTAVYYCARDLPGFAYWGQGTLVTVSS VL: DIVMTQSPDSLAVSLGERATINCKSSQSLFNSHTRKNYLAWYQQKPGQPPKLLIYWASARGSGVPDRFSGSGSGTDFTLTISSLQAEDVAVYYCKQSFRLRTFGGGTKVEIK", "MFI": 4070}

# ---- query binder ----
For h3G10 VH / h3G10 VL Fab (Fab, V domains shown, Tested as Fab; also called h3G10 Fab) VH: EVQLVESGGGLVQPGGSLRLSCAASGFTFSDYYMSWVRQAPGKGLEWVGFIRHKANGYTTEYSTSVKGRFTISRDDSKNSLYLQMNSLKTEDTAVYYCARDLPGFAYWGQGTLVTVSS VL: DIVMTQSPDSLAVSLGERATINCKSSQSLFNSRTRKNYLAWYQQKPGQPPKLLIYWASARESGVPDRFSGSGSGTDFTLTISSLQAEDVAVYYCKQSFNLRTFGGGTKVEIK , what is its reported MFI?
1360

Each recorded value in this set is attributed to patent US20150037328A1.
